B1: Pistol ribozyme (parent)
chain: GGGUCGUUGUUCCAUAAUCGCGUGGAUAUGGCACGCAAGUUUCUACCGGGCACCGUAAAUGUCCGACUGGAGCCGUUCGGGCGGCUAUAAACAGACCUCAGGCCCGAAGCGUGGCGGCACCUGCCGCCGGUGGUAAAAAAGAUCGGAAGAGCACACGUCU

Variants of: B1
method-notes: aptazyme ON/OFF ratio, guanine; higher = stronger switching; co-transcriptional cleavage with and without guanine
observation-type: aptazyme ON/OFF ratio

>>> readout_value("U7A U8C G9U U10A U11A C12U C13A")
1.21
>>> readout_value("U7A G9A U11C C12G C13G")
1.17
>>> readout_value("U8G U10G U11G C12G")
1.07
>>> readout_value("U7G U8A G9A U10C U11G C12G C13G")
1.19
>>> readout_value("U7G U8C G9U U10C U11C C12U C13U")
1.27
>>> readout_value("U8C U10A U11G C12A C13A")
1.24
>>> readout_value("U8A G9C U10A C12U")
1.14
>>> readout_value("U7C U8G U10G U11A C12G C13G")
1.21
>>> readout_value("U8C U10C U11A C12G C13A")
1.2
>>> readout_value("U8A G9C U11G C12U C13G")
1.27
>>> readout_value("U7A G9A U10A C12A C13A")
1.1
>>> readout_value("U10A C12A C13G")
1.19
>>> readout_value("U8C G9A U10A U11G C12A C13G")
1.17
>>> readout_value("U7G G9A U10A U11C C12U C13U")
1.2
>>> readout_value("U7A G9C U10G U11G C12G C13A")
1.14
>>> readout_value("U7C U10G U11G C12G")
1.22
>>> readout_value("U8C U10A")
1.1
>>> readout_value("U7G U8G G9U U10A C12G")
1.21
>>> readout_value("U8G G9U U10C C12U C13A")
1.11
>>> readout_value("U7C U8A U11A C12G C13A")
1.09
>>> readout_value("U8A G9C U10C U11C C12U C13U")
1.03
>>> readout_value("U7C U8G G9C U10C U11C C12G C13A")
1.19
